Molecular target: furin, P09958;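 also: purified furin at 1:10 enzyme:substrate in 50 mM HEPES pH 7.5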
Sequence (P09958 whole entry): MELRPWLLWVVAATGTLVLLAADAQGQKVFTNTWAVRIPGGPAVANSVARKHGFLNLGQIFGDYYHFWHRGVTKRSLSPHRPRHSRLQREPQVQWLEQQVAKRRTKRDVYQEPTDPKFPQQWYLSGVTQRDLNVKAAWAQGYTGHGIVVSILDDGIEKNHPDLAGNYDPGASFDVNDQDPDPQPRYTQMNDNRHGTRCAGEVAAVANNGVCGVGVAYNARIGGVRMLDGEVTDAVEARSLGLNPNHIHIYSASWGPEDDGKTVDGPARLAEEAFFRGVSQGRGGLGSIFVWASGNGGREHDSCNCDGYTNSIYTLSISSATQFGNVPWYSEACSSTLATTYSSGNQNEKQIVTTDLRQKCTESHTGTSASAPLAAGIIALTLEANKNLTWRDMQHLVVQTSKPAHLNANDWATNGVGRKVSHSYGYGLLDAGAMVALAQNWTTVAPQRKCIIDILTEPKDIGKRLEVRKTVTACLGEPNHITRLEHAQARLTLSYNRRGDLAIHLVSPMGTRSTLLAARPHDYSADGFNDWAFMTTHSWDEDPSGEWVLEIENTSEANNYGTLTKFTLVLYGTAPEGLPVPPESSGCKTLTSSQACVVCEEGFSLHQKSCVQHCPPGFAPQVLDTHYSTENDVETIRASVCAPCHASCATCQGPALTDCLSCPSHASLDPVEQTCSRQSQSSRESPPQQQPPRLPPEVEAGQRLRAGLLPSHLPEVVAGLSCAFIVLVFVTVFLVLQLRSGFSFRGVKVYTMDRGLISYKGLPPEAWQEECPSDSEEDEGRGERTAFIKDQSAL
Test: furin cleavage Z-score vs untreated control; higher = more cleavage, active = 3.5 or more, inactive = 1 or less, 8 variable residues between constant flanks
Details: 15 min
The list shows a part of the results. How many sequences the whole screen found active is unknown.
Items are presented alongside their recorded furin cleavage Z-score.
Answer with a bare number; do not write a unit.

CARLCRSVSGAGNASASA [FS-1859] :: 0.971
CARLCRRSRAAGNASASA [FS-1561] :: 7.37
CAQGNRWRRSAGNASASA [FS-139] :: 13
CARQGRFDRSAGNASASA [FS-190] :: 6.18
CAELTPAETTAGNASASA [HC925] :: 0.302

Input line: // furin cleavage Z-score lookup, key: CALKKRGILSAGNASASA [FS-2409]
Output line: -2.56

Input line: Try the sequence CAGVRTITTGAGNASASA [HC801]
Output line: -0.157

Where do these numbers come from? They come from the supplement of paper PMC3545927.
